system: Hedgehog Signaling Pathway; assay: Gli-Luc reporter gene cell assay in C3H10T1/2/Gli-Luc cells stimulated with Shh; assay type: cell-based, mouse; settings: Mus musculus, C3H 10T1/2, 24 h, 30 nM Shh, luciferase activity (RLU), read-out: IC50 values of compounds that inhibit Hh pathway
Counter-ions that a name gives are not always drawn.
Metric name: pIC50
Give only the number. pIC50 is defined as minus log10 of concentration in molar units.

Reported pIC50 ( C[C@@H]1CN(c2cc(Cl)c(C(=O)Nc3ccc(Cl)c(-c4ncc(-c5cccs5)[nH]4)c3)cc2F)C[C@H](C)N1C ) = 9.64

Reported pIC50 ( CCN1[C@H](C)CN(c2ccc(C(=O)Nc3ccc(Cl)c(-c4nc5ccc(F)cc5[nH]4)c3)c(Cl)c2)C[C@@H]1C ) = 9.07

Reported pIC50 ( CCc1cnc(-c2cc(NC(=O)c3ccc(N4C[C@@H](C)N(C)[C@@H](C)C4)cc3C)ccc2Cl)[nH]1 [Example 187, Dihydrochloride] ) = 9.35

Reported pIC50 ( Cc1cc(-c2ccc(C(F)(F)F)cc2)ccc1C(=O)Nc1ccc(Cl)c(-c2nc3ccccc3[nH]2)c1 ) = 8.24

Reported pIC50 ( CCCc1cnc(-c2cc(NC(=O)c3ccc(N4C[C@@H](C)N(C)[C@@H](C)C4)cc3C)ccc2Cl)[nH]1 ) = 7.77

Reported pIC50 ( Cc1c(C(=O)Nc2ccc(Cl)c(-c3ncc(C4CC4)[nH]3)c2)ccc(N2C[C@@H](C)N(C)[C@@H](C)C2)c1F ) = 9.37

Reported pIC50 ( Cc1cc(N2C[C@@H](C)N(C)[C@@H](C)C2)ccc1C(=O)Nc1ccc(Cl)c(-c2ncc(-c3cccs3)[nH]2)c1 ) = 9.82

Reported pIC50 ( Cc1cc(-c2ccc([N+](=O)[O-])cc2)ccc1C(=O)Nc1ccc(Cl)c(-c2nc3ccccc3[nH]2)c1 ) = 8.34

Reported pIC50 ( Cc1cc(N2C[C@@H](C)O[C@@H](C)C2)ccc1C(=O)Nc1cnc(Cl)c(-c2nc3ccccc3[nH]2)c1 ) = 8.20

Reported pIC50 ( C[C@@H]1CN(c2ccc(C(=O)Nc3ccc(Cl)c(-c4nc5ccccc5[nH]4)c3)c(Cl)n2)C[C@H](C)N1C ) = 8.92

Reported pIC50 ( CCN1[C@H](C)CN(c2ccc(C(=O)Nc3ccc(Cl)c(-c4ncc(-c5ccco5)[nH]4)c3)c(Cl)c2)C[C@@H]1C ) = 9.30

Reported pIC50 ( Cc1ccc2nc(-c3cc(NC(=O)c4ccc(N5C[C@@H](C)N(C)[C@@H](C)C5)cc4C)ccc3Cl)[nH]c2c1 ) = 8.26

Reported pIC50 ( Cc1c(C(=O)Nc2ccc(Cl)c(-c3ncc(-c4ccsc4)[nH]3)c2)ccc(N2C[C@@H](C)N(C)[C@@H](C)C2)c1F ) = 9.46

====

Provide the recorded pIC50 for the entries that follow.
system: Hedgehog Signaling Pathway; experiment: SHH-induced differentiation of C3H10T1/2 cells into osteoblastic cells, intracellular alkaline phosphatase activity; type: cell-based, mouse; conditions: Mus musculus, C3H 10T1/2, 120 h, 10 nM SHH-N, 5 days, alkaline phosphatase activity (OD405), read-out: IC50 values of compounds that inhibit Hh pathway
Where a name gives a salt, the structure may show the parent alone.
Give only the number. pIC50 is defined as minus log10 of concentration in molar units.

Reported pIC50 ( Cc1cc(-c2ccc(S(C)(=O)=O)cc2)ccc1C(=O)Nc1ccc(Cl)c(-c2nc3ccccc3[nH]2)c1 ) = 8.23

Reported pIC50 ( Cc1csc(-c2cnc(-c3cc(NC(=O)c4ccc(N5C[C@@H](C)N(C)[C@@H](C)C5)cc4C)ccc3Cl)[nH]2)c1 ) = 8.82

Reported pIC50 ( Cc1cc(-c2ccc(F)cc2)ccc1C(=O)Nc1ccc(Cl)c(-c2nc3ccccc3[nH]2)c1 ) = 8.11

Reported pIC50 ( Cc1cc(-c2ccc(C(F)(F)F)cc2)ccc1C(=O)Nc1cc(Cl)cc(-c2nc3ccccc3[nH]2)c1 ) = 7.41

Reported pIC50 ( Cc1nc(N2C[C@@H](C)N(C)[C@@H](C)C2)ccc1C(=O)Nc1ccc(Cl)c(-c2nc3ccccc3[nH]2)c1 ) = 8.68

Reported pIC50 ( Cc1cc(-c2ccc(C(F)(F)F)cc2)ccc1C(=O)Nc1ccc(Cl)c(-c2nnc3ccccn23)c1 ) = 6.33

Reported pIC50 ( CC(C)c1cnc(-c2cc(NC(=O)c3ccc(N4C[C@@H](C)N(C)[C@@H](C)C4)cc3Cl)ccc2Cl)[nH]1 [Example 189, Dihydrochloride] ) = 8.28

Reported pIC50 ( O=C(Nc1ccc(Cl)c(-c2nc3ccccc3[nH]2)c1)c1ccc(-c2ccc(F)cc2)cc1 ) = 7.74

Reported pIC50 ( C[C@@H]1CN(c2ccc(C(=O)Nc3ccc(Cl)c(-c4nc5ccccc5[nH]4)c3)cc2Cl)C[C@H](C)N1C ) = 8.13

Reported pIC50 ( Cc1cc(N2C[C@@H](C)N(C)[C@@H](C)C2)ccc1C(=O)Nc1ccc(Cl)c(-c2ncc(-c3nccs3)[nH]2)c1 ) = 7.66

Reported pIC50 ( C[C@@H]1CN(c2ccc(C(=O)Nc3ccc(Cl)c(-c4nc5ccccc5[nH]4)c3)c(N)c2)C[C@H](C)O1 ) = 7.66

Reported pIC50 ( Cc1ccc(-c2cnc(-c3cc(NC(=O)c4ccc(N5C[C@@H](C)O[C@@H](C)C5)cc4C)ccc3Cl)[nH]2)cc1 ) = 8.57

====

system: Hedgehog Signaling Pathway; experiment: SHH-induced differentiation of C3H10T1/2 cells into osteoblastic cells, intracellular alkaline phosphatase activity; type: cell-based, mouse; conditions: Mus musculus, C3H 10T1/2, 120 h, 10 nM SHH-N, 5 days, alkaline phosphatase activity (OD405), read-out: IC50 values of compounds that inhibit Hh pathway
Metric name: pIC50
Give only the number. pIC50 is defined as minus log10 of concentration in molar units.

Simply: Cc1cc(-c2ccc(C(F)(F)F)cc2)ccc1C(=O)Nc1cnc(C)c(-c2nc3ccccc3[nH]2)c1 [Example 71] , Hedgehog Signaling Pathway, pIC50 = 8.44

Simply: Cc1cc(N2C[C@@H](C)N(C)[C@@H](C)C2)ccc1C(=O)Nc1ccc(Cl)c(-c2nc3ccncc3[nH]2)c1 [Example 197] , Hedgehog Signaling Pathway, pIC50 = 6.94

Simply: Cc1cc(-c2ccc(C#N)cc2)ccc1C(=O)Nc1cnc(Cl)c(-c2nc3ccccc3[nH]2)c1 [Example 70] , Hedgehog Signaling Pathway, pIC50 = 8.55

Simply: C[C@@H]1CN(c2ccc(C(=O)Nc3ccc(Cl)c(-c4ncc(-c5cccs5)[nH]4)c3)c(Cl)c2)C[C@H](C)N1C [Example 82] , Hedgehog Signaling Pathway, pIC50 = 9.68

Simply: CC(C)N1[C@H](C)CN(c2ccc(C(=O)Nc3ccc(Cl)c(-c4ncc(-c5cccs5)[nH]4)c3)c(Cl)c2)C[C@@H]1C [Example 159] , Hedgehog Signaling Pathway, pIC50 = 9.44

Simply: C[C@@H]1CN(c2ccc(C(=O)Nc3cnc(Cl)c(-c4nc5ccccc5[nH]4)c3)c(Cl)c2)C[C@H](C)N1C [Example 127] , Hedgehog Signaling Pathway, pIC50 = 8.96

Simply: Cc1cc(N2C[C@@H](C)N(C)[C@@H](C)C2)ccc1C(=O)Nc1ccc(Cl)c(-c2ncc(-c3ccco3)[nH]2)c1 [Example 145] , Hedgehog Signaling Pathway, pIC50 = 9.03

====

system: Hedgehog Signaling Pathway; test: Gli-Luc reporter gene cell assay in C3H10T1/2/Gli-Luc cells stimulated with Shh; format: cell-based, mouse; conditions: Mus musculus, C3H 10T1/2, 24 h, 30 nM Shh, luciferase activity (RLU), read-out: IC50 values of compounds that inhibit Hh pathway
Metric name: pIC50
Give only the number. pIC50 is defined as minus log10 of concentration in molar units.

Simply: CC(C)c1cnc(-c2cc(NC(=O)c3ccc(N4C[C@@H](C)N(C)[C@@H](C)C4)cc3C(F)(F)F)ccc2Cl)[nH]1 [Example 171] , Hedgehog Signaling Pathway, pIC50 = 9.34

Simply: Cc1cc(N2C[C@@H](C)O[C@@H](C)C2)ncc1C(=O)Nc1cnc(Cl)c(-c2nc3ccccc3[nH]2)c1 [Example 85] , Hedgehog Signaling Pathway, pIC50 = 8.15

Simply: Cc1nc(N2C[C@@H](C)N(C)[C@@H](C)C2)ccc1C(=O)Nc1ccc(Cl)c(-c2nc3ccccc3[nH]2)c1 [Example 116] , Hedgehog Signaling Pathway, pIC50 = 8.85

====

test system: Hedgehog Signaling Pathway; test: Gli-Luc reporter gene cell assay in C3H10T1/2/Gli-Luc cells stimulated with Shh; assay type: cell-based, mouse; settings: Mus musculus, C3H 10T1/2, 24 h, 30 nM Shh, luciferase activity (RLU), read-out: IC50 values of compounds that inhibit Hh pathway
pIC50: −log10 of the molar value. Where a name gives a salt, the structure may show the parent alone.
Threshold rule: pIC50 greater than or equal to 8 is yes (1); below that, no (0).

Query: Check the entry CCN1[C@H](C)CN(c2ccc(C(=O)Nc3ccc(Cl)c(-c4ncc(C(C)C)[nH]4)c3)c(Cl)c2)C[C@@H]1C [Example 192, Dihydrochloride] : does pIC50 equal or exceed 8?
Response: yes (1)

Query: Check the entry CCc1cnc(-c2cc(NC(=O)c3ccc(N4C[C@@H](C)N(C)[C@@H](C)C4)cc3C(F)(F)F)ccc2Cl)[nH]1 [Example 167] : does pIC50 equal or exceed 8?
Response: no (0)

Query: Check the entry C[C@H]1CN(c2ccc(C(=O)Nc3ccc(Cl)c(-c4nc5ccccc5[nH]4)c3)c(Cl)c2)CCN1C [Example 126] : does pIC50 equal or exceed 8?
Response: yes (1)

Query: Check the entry C[C@@H]1CN(c2ccc(C(=O)Nc3ccc(Cl)c(-c4ncc(-c5ccsc5)[nH]4)c3)c(Cl)c2)C[C@H](C)N1C [Example 140] : does pIC50 equal or exceed 8?
Response: yes (1)

Query: Check the entry Cc1cc(C(=O)Nc2cnc(C)c(-c3nc4ccccc4[nH]3)c2)ccc1N1C[C@@H](C)N(C)[C@@H](C)C1 [Example 89] : does pIC50 equal or exceed 8?
Response: no (0)

The measurements presented in this section are drawn from patent US10676468B2.
